// provenance: PubChem BioAssay (NCI)

- Tested on: MDA-MB-435
- MEASUREMENT_DESCRIPTION: NCI tumour cell line growth inhibition, 48 h
Can you tell me TGI for the items I'm about to list?

Query string: So what TGI did "O=c1c2nc3ccccc3c(=O)n2ncn1-c1ccccc1Cl" get with MDA-MB-435?
Result string: > 100 µM

Query string: Query "NC(=O)c1c(NC(=O)c2ccccn2)sc2c1CCC(=O)C2" next
Result string: > 100 µM

Query string: Query "COc1ccc(-n2c(=O)[nH]n(C(C)=O)c2=O)cc1" next
Result string: > 100 µM

Query string: Query "CCN(CC(=O)O)C(=O)c1cccnc1" next
Result string: > 100 µM

Query string: Query "CCN(Cc1ccc(F)cc1)c1ccc(CO)c(F)c1" next
Result string: > 72.4 µM

Query string: Query CCCCCCC(=O)O[C@H]1CC[C@H]2[C@@H]3CCC4C/C(=N/NC(=O)c5cccc6c(=O)c7ccccc7[nH]c56)C=C(C)[C@]4(C)[C@H]3CC[C@]12C (stereo partly specified) next
Result string: > 25 µM

Query string: Query "O=c1ccn([C@@H]2C[C@@H]2CO)c(=O)[nH]1" next
Result string: > 100 µM

Query string: Query "COc1cccc(-n2nc(C)c3c(N/N=C(\C)c4ccncc4)ncnc32)c1" next
Result string: > 25 µM

Query string: Query "COc1cc2ccccc2oc1=O" next
Result string: > 100 µM

Query string: Query "COc1cc(CO)c(CC(=O)NCCCc2ccccc2)cc1OC" next
Result string: > 100 µM

Query string: Query "COc1cc(-c2cc(-c3ccccc3)nc(-c3c(OC)ccc4c(C)cc(=O)oc34)c2)cc(OC)c1OC" next
Result string: > 100 µM

Query string: Query "COC1=CC(c2ccc[nH]2)=N/C1=C\c1[nH]c(C)c(C(=O)CCCCC(=O)NC(C)(C)C)c1C" next
Result string: 3.47 µM

Query string: Query "CC(=O)Oc1ccc(-c2cc3ccccc3oc2=O)cc1" next
Result string: > 100 µM

Query string: Query "COC(=O)c1ccccc1OCc1cc(=O)oc2ccc(C)cc12" next
Result string: > 100 µM

Query string: Query COC(=O)C1CN=CN1CCc1ccccc1 (stereo unspecified) next
Result string: > 100 µM

Query string: Query "Cc1cccc(CP(Cc2cccc(C)c2)CC2(Cp3c4ccccc4c4ccccc43)COC2)c1" next
Result string: > 100 µM

Query string: Query O=C(O)C1C2CCC(O2)C1C(=O)Nc1cccc2cccnc12 (stereo unspecified) next
Result string: > 100 µM

Query string: Query CCOP(=O)(OCC)C(Nc1ccc(Br)cc1)c1cccc([N+](=O)[O-])c1 (stereo unspecified) next
Result string: 36.7 µM

Query string: Query "CCCN(CCCc1ccccc1)CCc1ccc2[nH]c(=S)[nH]c2c1" next
Result string: 41.8 µM

Query string: Query "O=C(N/C(=C/c1ccc(Cl)cc1Cl)c1nc2ccccc2s1)c1ccccc1" next
Result string: 30.2 µM

Query string: Query COc1ccc(CC(=O)N2CCC3(C)CC(=O)CC=C23)cc1OC (stereo unspecified) next
Result string: > 100 µM

Query string: Query "CC(=O)OC[C@]12CC[C@@H](C(=O)CBr)[C@@H]1[C@H]1CC[C@@H]3[C@@]4(C)CCCNC(C)(C)[C@@H]4CC[C@@]3(C)[C@]1(C)CC2" next
Result string: 13.8 µM

Query string: Query "CC1(N)CCN(c2cccnc2NC(=O)c2nc(-c3ncccc3C(F)(F)F)cnc2N)CC1" next
Result string: > 100 µM

Query string: Query Cc1nn(C(=O)Cc2ccccc2)c2c1C(c1ccc(O)cc1O)SC(N)=N2 (stereo unspecified) next
Result string: > 100 µM

Query string: Query "N#CC(=C1CCN(CCCC(=O)c2ccc(F)cc2)CC1)c1ccccc1" next
Result string: > 100 µM

Query string: Query COc1ccc(C2CC(C)(O)Oc3cc4c(cc32)OCO4)cc1 (stereo unspecified) next
Result string: 42.9 µM
